Each recorded value in this set is attributed to the supplement of paper PMC6555819.

Recorded PBM binding z-score for the following sequences
System: PPARg:RXRa 90nM:30nM, anti-RXR (NR concentration 90 nM, RXRa partner concentration 30 nM)
Experiment: PBM binding z-score (relative to random genomic background probes); higher = stronger binding; sequences stand for … in GC…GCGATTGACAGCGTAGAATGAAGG
Give the value as a plain number.

CGTCTAAGGTCAAGGTCAGTGAAAGAGACTCGAA :: 5.94
CGAACTAGTTCAAGGACAGTGAATCTCCGCACGC :: -0.0258
CAAACTAGGTCAAAGGTCAAGGTCGAGCCAACCA :: 14.1
ACTTACGGGTCAACGGGGTTATAGCACGCGTATA :: 4.14
TATACTGGGTCAAAGGCCAGAGTACGAATGTCGA :: 10.2

Continue with the sequence presented below.
Exercise: Which PBM binding z-score value is on record for GCTTACGGGTCAAAGGTTACAGCATGAATAGAAT ?
Solution: 11.5
